Measured values drawn from paper PMC9482650 for this set.

Target: T1, LIN7C, Q9NUP9
T1 sequence (Q9NUP9 88-185, limits assumed, looked up): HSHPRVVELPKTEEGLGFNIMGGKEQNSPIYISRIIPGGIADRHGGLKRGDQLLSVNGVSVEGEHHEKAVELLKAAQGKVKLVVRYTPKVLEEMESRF
Test: holdup assay
Parameters: key: below the threshold = too weak to quantify, mostly under pKd 3.1 to 4
Settings: plain residues with an end cap or a label only (N-terminal biotin on a linker: ado-ado)
endpoint.name: pKd

Example cases with answers are listed next.
binder	endpoint.name	value.measured
QPCFNKLFPL [LPXN, O60711]	pKd	below the threshold
VKPQVSESKL [ACOT8, O14734]	pKd	below the threshold
LGRSTPQSEV [DGKH, Q86XP1]	pKd	below the threshold
AKPSRISTVV [IQSEC2, Q5JU85]	pKd	below the threshold
KKMPSIESDV [GRIN2A, Q12879]	pKd	below the threshold
YYKRPVQEWV [MMP24, Q9Y5R2]	pKd	below the threshold
DDPSTAETVL [ABCA7, Q8IZY2]	pKd	below the threshold
DTTVPESEDL [MYOZ2, Q9NPC6]	pKd	below the threshold
SARSRLSSNL [HCN2, Q9UL51]	pKd	below the threshold
EALLQMESVA [CAVIN3, Q969G5]	pKd	below the threshold

Task: Return the recorded pKd value; entry: QSLNRMEYIV [JAG1, P78504]
Output: 3.53

Task: Return the recorded pKd value; entry: RKPKPSSSCC [RAB9A, P51151]
Output: 3.69

Task: Return the recorded pKd value; entry: TLPRKRMSSI [GPRC6A, Q5T6X5]
Output: below the threshold

Task: Return the recorded pKd value; entry: ETQVTAETVI [TMEM225B, P0DP42]
Output: 4.07

Task: Return the recorded pKd value; entry: MLSKQSESAI [FLVCR1, Q9Y5Y0]
Output: below the threshold

Task: Return the recorded pKd value; entry: SAKVRTVTSV [RASL11B, Q9BPW5]
Output: below the threshold
